IC50 reference
Experimental Details: Cytotoxicity against human MCF7/ADR cells after 6 days by MTT assay
Type: functional, cell-based
Experimental Conditions: NCI/ADR-RES, 144 h

Task item: Request the reported IC50 associated with COc1cc(O)c2c(c1)C(=O)C1=C(C[C@@H](O)[C@@](C)(O)C1)C2=O
Reply: > 100 µM

Task item: Request the reported IC50 associated with COc1cc(O)c2c(c1)[C@@H](O)[C@H]1C[C@](C)(O)[C@H](O)C[C@@H]1C2=O (relative stereo) [TETRAHYDROALTERSOLANOL C]
Reply: > 100 µM

Task item: Request the reported IC50 associated with COc1cccc2c1C(=O)c1c(O)c3c(c(O)c1C2=O)C[C@@](O)(C(=O)CO)C[C@@H]3O[C@H]1C[C@H](N)[C@@H](O)[C@H](C)O1 [EPIRUBICIN]
Reply: 1.65 µM

Task item: Request the reported IC50 associated with COc1cc(O)c2c(c1)[C@H](O)[C@H]1C[C@](C)(O)[C@H](O)C[C@@H]1C2=O [TETRAHYDROALTERSOLANOL B]
Reply: > 100 µM

Task item: Request the reported IC50 associated with COc1cc(O)c2c(c1)C(=O)C1=C(C[C@@H](O)[C@@](C)(O)[C@@H]1O)C2=O
Reply: 3.2 µM
